Data origin, for the record: paper PMC4721142

system: MMT/MCLT rat model of OA; assay: MMT/MCLT trial 1 histopathology (same doses); format: in vivo; conditions: vs saline group; low or only dose

| Compound | % decrease, osteophyte measure, % |
| --- | --- |
| C=CC[C@@H]1/C=C(\C)C[C@H](C)C[C@H](OC)[C@H]2O[C@@](O)(C(=O)C(=O)N3CCCC[C@H]3C(=O)O[C@H](/C(C)=C/[C@@H]3CC[C@@H](O)[C@H](OC)C3)[C@H](C)[C@@H](O)CC1=O)[C@H](C)C[C@@H]2OC | 28 |
| CC1=C(CO)C(=O)O[C@@H]([C@@H](C)[C@H]2CC[C@H]3[C@@H]4C[C@H]5O[C@]56[C@@H](O)C=CC(=O)[C@]6(C)[C@H]4CC[C@]23C)C1 | 0 |
| CC1(C)O[C@@H]2C[C@H]3[C@@H]4C[C@H](F)C5=CC(=O)C=C[C@]5(C)[C@@]4(F)[C@@H](O)C[C@]3(C)[C@]2(C(=O)CO)O1 [Fluocinolone, Fluocinolone Acetonide] | 11 |
| NCCCC(O)(P(=O)(O)O)P(=O)(O)O [Alendronate, Alendronate sodium] | 7 |
| COc1cc(/C=C/C(=O)CC(=O)/C=C/c2ccc(O)c(OC)c2)ccc1O | -16 |
| CN1CC[C@]23c4c5ccc(O)c4O[C@H]2[C@@H](O)C=C[C@H]3[C@H]1C5 | -12 |
| Clc1cccc(Cl)c1N=C1NCCN1 | -5 |

====

system: SW982; test: Synovial toxicity (CellTiter-Glo), with or without TNF-α; details: human

| Mol | Non-toxic range (Synovial) |
| --- | --- |
| O=C(Nc1cc(C(F)(F)F)cc(C(F)(F)F)c1)c1cc(Cl)ccc1O | 0.1 to 0.2 µM |

====

system: MMT/MCLT rat model of OA; assay: MMT/MCLT trial 1 histopathology (same doses); format: in vivo; details: vs saline group; low or only dose

| Compound | % decrease, tibial score zone 2 / % |
| --- | --- |
| CN1CC[C@]23c4c5ccc(O)c4O[C@H]2[C@@H](O)C=C[C@H]3[C@H]1C5 | 13 |
| CC1(C)O[C@@H]2C[C@H]3[C@@H]4C[C@H](F)C5=CC(=O)C=C[C@]5(C)[C@@]4(F)[C@@H](O)C[C@]3(C)[C@]2(C(=O)CO)O1 [Fluocinolone, Fluocinolone Acetonide] | 15 |
| NCCCC(O)(P(=O)(O)O)P(=O)(O)O [Alendronate, Alendronate sodium] | 8 |
| Clc1cccc(Cl)c1N=C1NCCN1 | 9 |

====

system: MMT/MCLT rat model of OA; test: MMT/MCLT trial 1 histopathology (same doses); type: in vivo; conditions: mean; low or only dose
Would you mind labelling by Tibial osteophyte score? At or over 4 is rule met, under is rule not met.

| Molecule | Assigned Label |
| --- | --- |
| CN1CC[C@]23c4c5ccc(O)c4O[C@H]2[C@@H](O)C=C[C@H]3[C@H]1C5 | rule met |
| C=CC[C@@H]1/C=C(\C)C[C@H](C)C[C@H](OC)[C@H]2O[C@@](O)(C(=O)C(=O)N3CCCC[C@H]3C(=O)O[C@H](/C(C)=C/[C@@H]3CC[C@@H](O)[C@H](OC)C3)[C@H](C)[C@@H](O)CC1=O)[C@H](C)C[C@@H]2OC | rule not met |
| NCCCC(O)(P(=O)(O)O)P(=O)(O)O [Alendronate, Alendronate sodium] | rule not met |
| COc1cc(/C=C/C(=O)CC(=O)/C=C/c2ccc(O)c(OC)c2)ccc1O | rule met |
| CC1(C)O[C@@H]2C[C@H]3[C@@H]4C[C@H](F)C5=CC(=O)C=C[C@]5(C)[C@@]4(F)[C@@H](O)C[C@]3(C)[C@]2(C(=O)CO)O1 [Fluocinolone, Fluocinolone Acetonide] | rule not met |

====

Listed here: items and their measured Overlapping effective and nontoxic range.
test: Comparison of in vitro screens: overlapping effective and nontoxic range; settings: inhibits with minimal or no toxicity to synovium or cartilage; overlapping range if effective in more than one assay;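 also: compares non-toxic ranges in synovial cells and chondrocytes with effective ranges against NFkB, MMP-13 and osteoclasts, giving their overlap as the predicted efficacy range in uM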
Attribute Measured: Overlapping effective and nontoxic range

| Compound | Attribute Measured | Test Result |
| --- | --- | --- |
| NC(=O)Nc1sc(-c2ccccc2)cc1C(N)=O | Overlapping effective and nontoxic range | 0.24 to 15.2 µM |
| COc1ccc(C=CC(=O)Nc2ccccc2C(=O)O)cc1OC | Overlapping effective and nontoxic range | 1 to 8 µM |
| Cc1ccc2nc(NCCN)c3ncc(C)n3c2c1 | Overlapping effective and nontoxic range | 0.244 µM |
| CC[C@@H]1/C=C(\C)C[C@H](C)C[C@H](OC)[C@H]2O[C@@](O)(C(=O)C(=O)N3CCCC[C@H]3C(=O)O[C@H](/C(C)=C/[C@@H]3CC[C@@H](O)[C@H](OC)C3)[C@H](C)[C@@H](O)CC1=O)[C@H](C)C[C@@H]2OC | Overlapping effective and nontoxic range | 1.25 to 40 µM |
| CC1(C)O[C@@H]2C[C@H]3[C@@H]4CCC5=CC(=O)C=C[C@]5(C)[C@@]4(F)[C@@H](O)C[C@]3(C)[C@]2(C(=O)CO)O1 [Triamcinolone acetonide] | Overlapping effective and nontoxic range | 250 to 500 µM |

====

Listed here: items and their measured Total joint score w/o matrix.
test system: MIA rat model of OA; assay: MIA trial 3 histopathology (same doses as dRS test); format: in vivo; settings: group mean; i.a. weekly
Attribute Measured: Total joint score w/o matrix

| Compound | Tested Target | Attribute Measured | Test Result |
| --- | --- | --- | --- |
| CC(C)(C)CC(=O)OCC(=O)[C@@]12OC(C)(C)O[C@@H]1C[C@H]1[C@@H]3CCC4=CC(=O)C=C[C@]4(C)[C@@]3(F)[C@@H](O)C[C@@]12C [Triamcinolone hexacetonide] | MIA rat model of OA | Total joint score w/o matrix | 5.0 |
| C=CC[C@@H]1/C=C(\C)C[C@H](C)C[C@H](OC)[C@H]2O[C@@](O)(C(=O)C(=O)N3CCCC[C@H]3C(=O)O[C@H](/C(C)=C/[C@@H]3CC[C@@H](O)[C@H](OC)C3)[C@H](C)[C@@H](O)CC1=O)[C@H](C)C[C@@H]2OC | MIA rat model of OA | Total joint score w/o matrix | 8.3 |
| CC1(C)O[C@@H]2C[C@H]3[C@@H]4C[C@H](F)C5=CC(=O)C=C[C@]5(C)[C@@]4(F)[C@@H](O)C[C@]3(C)[C@]2(C(=O)CO)O1 [Fluocinolone, Fluocinolone Acetonide] | MIA rat model of OA | Total joint score w/o matrix | 7.0 |
| Cc1cnc(NC(=O)C2=C(O)c3ccccc3S(=O)(=O)N2C)s1 | MIA rat model of OA | Total joint score w/o matrix | 2.0 |
| COc1ccc(C=CC(=O)Nc2ccccc2C(=O)O)cc1OC | MIA rat model of OA | Total joint score w/o matrix | 9.3 |

====

system: RAW 264.7 cells; test: RANKL-mediated osteoclastogenesis / matrix resorption (Osteologic) assay; format: cell-based, murine
Attribute Measured: Effective range against Osteoclasts

| Molecule | Attribute Measured | Test Result |
| --- | --- | --- |
| CNC(=O)[C@H](Cc1c[nH]c2ccccc12)NC(=O)[C@@H](CC(=O)NO)CC(C)C [GM6001] | Effective range against Osteoclasts | Not effective |
| O=C(c1ccccc1)c1ccc2n1CCC2C(=O)O (centres unmarked) [Keterolac] | Effective range against Osteoclasts | Not effective |
| COc1ccc(CCN(C)CCCC(C#N)(c2ccc(OC)c(OC)c2)C(C)C)cc1OC (centres unmarked) [Verapamil] | Effective range against Osteoclasts | Not effective |
| NC(=O)Nc1sc(-c2ccccc2)cc1C(N)=O [IKK inhibitor VI] | Effective range against Osteoclasts | ≥ 0.5 µM |
| Nc1cc(-c2ccncc2)c[nH]c1=O [Amrinone] | Effective range against Osteoclasts | Not effective |
